target: Human immunodeficiency virus type 1 integrase (Human immunodeficiency virus 1); assay: Inhibitory concentration against Recombinant HIV-1 integrase (Standard transfer reaction)
Lab note: anything with IC50 below 3 µM is marked 1.0; values at 3 µM or higher are marked 0.0.

Criterion: IC50 strictly below 3 µM. Is it met by CC(C)Oc1ccc(CN=[N+]=[N-])cc1C(=O)CC(=O)C(=O)O ?
0.0

Criterion: IC50 strictly below 3 µM. Is it met by [N-]=[N+]=NCc1ccc(C(=O)CC(=O)C(=O)O)cc1CN=[N+]=[N-] ?
1.0

Criterion: IC50 strictly below 3 µM. Is it met by COc1ccc(C(=O)CC(=O)C(=O)O)cc1CN=[N+]=[N-] ?
0.0

Criterion: IC50 strictly below 3 µM. Is it met by [N-]=[N+]=NCc1cc(CN=[N+]=[N-])cc(C(=O)CC(=O)C(=O)O)c1 ?
1.0

Criterion: IC50 strictly below 3 µM. Is it met by N#CCCc1cccc(C(=O)CC(=O)C(=O)O)c1 ?
1.0

More entries:
Criterion: IC50 strictly below 3 µM. Is it met by [N-]=[N+]=NCc1ccc(C(=O)CC(=O)C(=O)O)cc1 ?
0.0

* * *

target: Human immunodeficiency virus type 1 integrase (Human immunodeficiency virus 1); assay: Inhibitory concentration against Recombinant HIV-1 integrase (Standard transfer reaction)
pIC50: −log10 of the molar value.
Returns Condition met if the recorded pIC50 is greater than or equal to 6, and Condition not met otherwise.

The examples below pair each entry with its known result.
Could you verify whether the entry CC(C)Oc1ccc(CN=[N+]=[N-])cc1C(=O)CC(=O)C(=O)O shows pIC50 of no less than 6?
Condition not met

Could you verify whether the entry O=C(O)C(=O)CC(=O)c1cc(OCc2ccccc2)cc(OCc2ccccc2)c1 shows pIC50 of no less than 6?
Condition met

Could you verify whether the entry [N-]=[N+]=NC1CC(N=[N+]=[N-])c2cc(C(=O)CC(=O)C(=O)O)ccc21 (stereo unspecified) shows pIC50 of no less than 6?
Condition met

Could you verify whether the entry [N-]=[N+]=NCc1cc(CN=[N+]=[N-])cc(C(=O)CC(=O)C(=O)O)c1 shows pIC50 of no less than 6?
Condition not met

Could you verify whether the entry COc1ccc(C(=O)CC(=O)C(=O)O)cc1CN=[N+]=[N-] shows pIC50 of no less than 6?
Condition not met

More entries:
Could you verify whether the entry N#CCCc1cccc(C(=O)CC(=O)C(=O)O)c1 shows pIC50 of no less than 6?
Condition not met

Could you verify whether the entry [N-]=[N+]=NCc1ccc(C(=O)CC(=O)C(=O)O)cc1CN=[N+]=[N-] shows pIC50 of no less than 6?
Condition met

* * *

target: UniProtKB Q7ZJM1; experiment: Inhibitory concentration against Recombinant HIV-1 integrase (3'processing)
recorded_metric: IC50 (µM)
The figure you give is taken to be in µM; do not add the unit.

For the compound O=C(O)C(=O)CC(=O)c1cccc(OCc2ccccc2)c1 , give its reported IC50.
100

* * *

biological target: Human immunodeficiency virus type 1 integrase (Human immunodeficiency virus 1, UniProt Q7ZJM1); assay: Inhibitory concentration against Recombinant HIV-1 integrase (3'processing)
Sequence (Q7ZJM1 whole entry): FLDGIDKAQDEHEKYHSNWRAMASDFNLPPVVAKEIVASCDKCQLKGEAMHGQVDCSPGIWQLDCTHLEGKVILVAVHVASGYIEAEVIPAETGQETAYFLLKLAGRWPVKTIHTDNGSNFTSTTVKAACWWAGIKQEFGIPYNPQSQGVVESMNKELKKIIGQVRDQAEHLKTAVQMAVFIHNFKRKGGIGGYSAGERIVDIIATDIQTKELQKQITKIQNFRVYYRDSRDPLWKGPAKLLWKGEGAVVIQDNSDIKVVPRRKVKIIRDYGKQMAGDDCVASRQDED
Catalogue of compounds with associated IC50

Please review the following examples before continuing.
For the compound [N-]=[N+]=NC1CC(N=[N+]=[N-])c2cc(C(=O)CC(=O)C(=O)O)ccc21 (stereo not given) , give its reported IC50.
> 100 µM

For the compound O=C(O)C(=O)CC(=O)c1cccc(OCc2ccccc2)c1 , give its reported IC50.
85 µM

For the compound O=C(O)C(=O)CC(=O)c1cc(OCc2ccccc2)cc(OCc2ccccc2)c1 , give its reported IC50.
> 100 µM

For the compound [N-]=[N+]=NCc1cccc(C(=O)CC(=O)C(=O)O)c1 , give its reported IC50.
> 100 µM

Switching to the query record.
For the compound [N-]=[N+]=NCc1ccc(C(=O)CC(=O)C(=O)O)cc1CN=[N+]=[N-] , give its reported IC50.
> 100 µM

All figures here come from ChEMBL document CHEMBL1144971.
